- Tested Target: KRas^G12R (Homo sapiens, UniProt P01116, G12R)
- Construct: Biotinylated KRas (corresponding to amino acids 1-169, produced at Accelegan Inc.); biotin (biotinylated); purchased Accelegan Inc
- Sequence (P01116 1-169 isoform P01116-2 G12R): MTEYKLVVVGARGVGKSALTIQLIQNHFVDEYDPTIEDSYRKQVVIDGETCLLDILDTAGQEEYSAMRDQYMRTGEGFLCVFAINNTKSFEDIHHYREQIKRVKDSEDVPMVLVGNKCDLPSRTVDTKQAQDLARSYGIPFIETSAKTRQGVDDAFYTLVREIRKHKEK
- Experimental Protocol: KRas binding assay (TR-FRET tracer displacement), KRas G12R
Record form. Attribute: IC50. Fill in for each entry.

compound="CCc1c(F)ccc2cc(O)cc(-c3ncc4c(N5CCCC6(CNS(=O)(=O)N6)C5)nc(OC[C@]56CCCN5[C@H](COC(=O)N(C)C)CC6)nc4c3F)c12 (stereo partly drawn)" tested_target="KRas^G12R (Homo sapiens, UniProt P01116, G12R)" property_measured=IC50 value_reported="< 2 nM"
compound=CCc1c(F)ccc2cc(O)cc(-c3ncc4c(N5CCC[C@@](C)(O)C5)nc(OC[C@]56CCCN5[C@H](CNS(=O)(=O)N(C)C)CC6)nc4c3F)c12 tested_target="KRas^G12R (Homo sapiens, UniProt P01116, G12R)" property_measured=IC50 value_reported="< 2 nM"

Now examine the next entry.
Please look up its IC50: CCc1c(F)ccc2cc(O)cc(-c3ncc4c(N5CCCC6(CNS(=O)(=O)C6)C5)nc(OC[C@@]56CCCN5C[C@H](F)C6)nc4c3F)c12 (stereo partly drawn)
< 2 nM
